test: Stability of peptides in human plasma; assay type: in vitro ADME; settings: human, plasma
Where a SMILES comes first, the peptide text is derived from it. [ ]: non-standard residue; d: D form. ξ: configuration not given here. Arg(NO2) = N=C(NCCC[C@H](N)C(=O)O)N[N+](=O)[O-]; αMePhe(2,6-F2) = C[C@](N)(Cc1c(F)cccc1F)C(=O)O; ξαMePhe(2,6-F2) = CC(N)(Cc1c(F)cccc1F)C(=O)O; αMePhe(2-F) = C[C@](N)(Cc1ccccc1F)C(=O)O; ξαMePhe(2-F) = CC(N)(Cc1ccccc1F)C(=O)O; hArg = N=C(N)NCCCC[C@H](N)C(=O)O; Cit = NC(=O)NCCC[C@H](N)C(=O)O; Nle = CCCC[C@H](N)C(=O)O; Ac5c = NC1(C(=O)O)CCCC1; Aib = CC(C)(N)C(=O)O
REPORTED METRIC: half-life (h)
Numbers only; they are read as h.

Use these answered entries as a reference point.
- COMPOUND: "CCCC[C@H](NC(=O)C(C)(Cc1c(F)cccc1F)NC(=O)[C@H](CCC(N)=O)NC(=O)[C@@H](NC(=O)[C@H](CCC(=O)O)NC(=O)C(C)(C)NC(=O)[C@@H](NC(=O)C1(N)CCCC1)C(C)C)[C@@H](C)CC)C(=O)N[C@@H](Cc1c[nH]cn1)C(=O)N[C@@H](CCC(N)=O)C(=O)N[C@@H](CCCCNC(=N)N)C(=O)NC(C)(C)C(=O)NC(C)(Cc1c(F)cccc1F)C(=O)NC(C)(Cc1ccccc1F)C(N)=O (stereo partly shown) [Seq. ID. 220] (H-[Ac5c]V[Aib]EIQ[ξαMePhe(2,6-F2)][Nle]HQ[hArg][Aib][ξαMePhe(2,6-F2)][ξαMePhe(2-F)]-NH2)"
  half-life [h]: 8
- COMPOUND: "CCCC[C@H](NC(=O)[C@](C)(Cc1ccccc1F)NC(=O)[C@H](CCC(N)=O)NC(=O)[C@@H](NC(=O)[C@H](CCC(=O)O)NC(=O)C(C)(C)NC(=O)[C@@H](NC(=O)C(C)(C)N)C(C)C)[C@@H](C)CC)C(=O)N[C@@H](Cc1c[nH]cn1)C(=O)N[C@@H](CCC(N)=O)C(=O)N[C@@H](CCCCNC(=N)N)C(=O)NC(C)(C)C(=O)N[C@@H](CCCNC(N)=O)C(=O)N[C@@](C)(Cc1c(F)cccc1F)C(N)=O [Seq. ID. 142] (H-[Aib]V[Aib]EIQ[αMePhe(2-F)][Nle]HQ[hArg][Aib][Cit][αMePhe(2,6-F2)]-NH2)"
  half-life [h]: 8

IN: // query half-life value for entry CCCC[C@H](NC(=O)C(C)(Cc1ccccc1F)NC(=O)[C@H](CCC(N)=O)NC(=O)[C@@H](NC(=O)[C@H](CCC(=O)O)NC(=O)C(C)(C)NC(=O)[C@@H](NC(=O)C1(N)CCCC1)C(C)C)[C@@H](C)CC)C(=O)N[C@@H](Cc1c[nH]cn1)C(=O)N[C@@H](CCC(N)=O)C(=O)N[C@@H](CCCCNC(=N)N)C(=O)NC(C)(C)C(=O)N[C@@H](CCCNC(=N)N[N+](=O)[O-])C(=O)NC(C)(Cc1ccccc1F)C(N)=O (stereo partly shown) [Seq. ID. 250] (H-[Ac5c]V[Aib]EIQ[ξαMePhe(2-F)][Nle]HQ[hArg][Aib][Arg(NO2)][ξαMePhe(2-F)]-NH2)
OUT: 8
